# tested_on: PTPN2 (Homo sapiens, UniProt P17706)
# Construct: expressed in transfected cells; host or cells: 293T (293T.109 HiBiT-PTPN2 line; parental 293T WT from ATCC)
# Sequence (P17706 whole entry, species assumed): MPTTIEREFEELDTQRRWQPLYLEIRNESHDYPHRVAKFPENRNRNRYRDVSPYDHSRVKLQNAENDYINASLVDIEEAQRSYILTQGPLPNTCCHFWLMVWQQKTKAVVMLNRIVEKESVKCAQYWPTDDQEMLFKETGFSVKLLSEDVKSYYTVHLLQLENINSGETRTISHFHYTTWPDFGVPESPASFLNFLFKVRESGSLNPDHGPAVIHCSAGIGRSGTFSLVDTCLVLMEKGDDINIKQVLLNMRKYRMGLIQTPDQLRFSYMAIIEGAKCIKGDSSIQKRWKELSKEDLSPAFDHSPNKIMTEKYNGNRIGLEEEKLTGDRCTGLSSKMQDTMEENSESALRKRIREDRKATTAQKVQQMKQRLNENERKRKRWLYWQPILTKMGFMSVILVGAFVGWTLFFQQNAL
# method_description: HiBiT-Degradation 293T.109 PTPN2 (Nano-Glo HiBiT Lytic Assay)
# Assay type: cell-based
# assay_context: 293T.109 (HiBiT-PTPN2) cells, 24.0 hours
# Experimental: Dulbecco's modified Eagle medium (DMEM) without phenol red and fetal bovine serum (FBS) were purchased from Gibco (Grand Island, NY, USA). Nano-Glo® HiBIT Lytic Assay System was purchased from Promega (Madison, WI, USA). […] PTPN2 degradation was determined based on quantification of luminescent signal using Nano-Glo® HiBIT Lytic Assay kit. […] Luminescence was acquired on EnVision™ Multilabel Reader (PerkinElmer, Santa Clara, CA, USA).
quantity: DC50

# input compound: O=C(CCOCCn1cc(CNc2cccc3c2C(=O)N(C2CCC(=O)NC2=O)C3=O)nn1)NCCOc1ccc2cc(O)c(N3CC(=O)NS3(=O)=O)c(F)c2c1 (stereo not drawn) [Example 48] ; wanted: its DC50
≥ 1000 nM

Bench note: what DC50 did O=C(CN1CCC(c2ccc3c(c2)oc(=O)n3C2CCC(=O)NC2=O)CC1)NCCOc1ccc2cc(O)c(N3CC(=O)NS3(=O)=O)c(F)c2c1 (stereo not drawn) [Example 5] show?
50 to 200 nM

Form field: reported DC50 of Cn1c(=O)n(C2CCC(=O)NC2=O)c2ccc(Nc3ccc(C(=O)Nc4ccc5c(F)c(N6CC(=O)NS6(=O)=O)c(O)cc5c4)cc3)cc21 (stereo not drawn) [Example 104]
50 to 200 nM

Look up DC50: Cn1c(=O)n(C2CCC(=O)NC2=O)c2ccc(C3CCN(CCN4CCC(c5ccc6cc(O)c(N7CC(=O)NS7(=O)=O)c(F)c6c5)CC4)CC3)cc21 (stereo not drawn) [Example 123]
10 to 50 nM

Can you share its DC50? I mean this compound: Cn1c(=O)n(C2CCC(=O)NC2=O)c2ccc(C3CCN(CCCn4cc(-c5ccc6cc(O)c(N7CC(=O)NS7(=O)=O)c(F)c6c5)cn4)CC3)cc21 (stereo not drawn) [Example 91]
10 to 50 nM

Suppose we examine the compound Cn1c(=O)n(C2CCC(=O)NC2=O)c2ccc(C3CCN([C@H](CO)C(=O)Nc4ccc5c(F)c(N6CC(=O)NS6(=O)=O)c(O)cc5c4)CC3)cc21 (stereo partly drawn) [Example 183] ; what DC50 value has been reported?
10 to 50 nM

Data provenance is patent US20240383886A1.
